In this section, each of the molecules is paired with its reported EC50.
- measuredOn: human α7 nAChR (Homo sapiens, UniProt P36544)
- Construct: host or cells: GH4C1 cells (pituitary tumor, immortalized cell line)
- Sequence (P36544 23-502): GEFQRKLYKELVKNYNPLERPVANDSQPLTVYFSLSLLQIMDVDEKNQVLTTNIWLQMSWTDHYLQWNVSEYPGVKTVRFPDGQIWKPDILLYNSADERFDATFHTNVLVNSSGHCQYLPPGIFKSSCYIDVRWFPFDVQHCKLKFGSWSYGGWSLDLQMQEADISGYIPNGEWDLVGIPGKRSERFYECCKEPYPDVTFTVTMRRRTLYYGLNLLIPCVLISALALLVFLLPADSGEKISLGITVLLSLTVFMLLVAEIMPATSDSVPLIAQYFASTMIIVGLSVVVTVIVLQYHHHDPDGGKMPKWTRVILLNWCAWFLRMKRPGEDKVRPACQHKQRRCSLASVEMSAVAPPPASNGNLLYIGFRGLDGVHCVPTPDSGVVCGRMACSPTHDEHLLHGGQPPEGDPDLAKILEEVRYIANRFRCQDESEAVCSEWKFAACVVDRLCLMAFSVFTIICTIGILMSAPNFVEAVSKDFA
- methodNotes: α7 nAChR FLIPR (Fluorometric Imaging Plate Reader) Ca2+ assay, agonist EC50
- Format: cell-based
- conditionSummary: GH4C1 cells stably transfected with human α7 nAChR; Fluo-4 Ca2+ fluorescence; Examples 194 to 205 tested as the HCl salt; read-out: pEC50 value (negative logarithm of the agonist EC50) (converted)
- Method: α7 nAChR FLIPR® (Fluorometric Imaging Plate Reader) Assay Function of the heterologous expressed α7 nAChR was assessed by a FLIPR-Ca^2+ assay. Since nAChRs are non-selective cation channels with high permeability to Ca^2+, these studies were carried out by measuring changes of intracellular Ca^2+ concentration using the Ca^2+-chelating fluorescent dye Fluo-4 and FLIPR® (Fluorometric Imaging Plate Reader) technology. […] The results are expressed as pEC50 values. […]

molecularString: CN(CCCNc1nnc(-c2ccc(NC(=O)c3ccccc3F)cc2)o1)C1CCCC1
EC50: ≤ 1 µM
//
molecularString: O=C(Nc1ccc(-c2nnc(NCCCN3CCCC3)o2)c(F)c1)c1ccccc1
EC50: ≤ 1 µM
//
molecularString: CCN(CC)CCCNc1nnc(-c2ccc(NC(=O)c3cccc(F)c3)cc2)o1
EC50: ≤ 1 µM
//
molecularString: CCN(CC)CCCNc1nnc(-c2ccc(NC(=O)C3CCCCC3)cc2C(F)(F)F)o1
EC50: ≤ 1 µM
//
molecularString: CCOc1cc(NC(=O)C2CCCCC2)ccc1-c1nnc(NCCCN2CCCCC2)o1
EC50: ≤ 1 µM
//
molecularString: COc1cc(NC(=O)c2ccccc2)ccc1-c1nnc(NCCCCN2CCCCC2)o1
EC50: ≤ 0.1 µM
//
molecularString: CCc1cc(NC(=O)c2ccccc2F)ccc1-c1nnc(NCCCCN2CCCC2)o1
EC50: ≤ 0.1 µM
//
molecularString: O=C(Nc1ccc(-c2nnc(NCCCCN3CCOCC3)o2)cc1)C1CCCCC1
EC50: ≤ 1 µM

---

In this section, each of the compounds is paired with its reported EC50.
- measuredOn: human α7 nAChR (Homo sapiens, UniProt P36544)
- Construct: host or cells: GH4C1 cells (pituitary tumor, immortalized cell line)
- methodNotes: α7 nAChR FLIPR (Fluorometric Imaging Plate Reader) Ca2+ assay, agonist EC50
- Format: cell-based
- conditionSummary: GH4C1 cells stably transfected with human α7 nAChR; Fluo-4 Ca2+ fluorescence; Examples 194 to 205 tested as the HCl salt; read-out: pEC50 value (negative logarithm of the agonist EC50) (converted)
valueType: EC50

molecularString: COc1cc(NC(=O)C2CCCCC2)ccc1-c1nnc(NCCCCN2CCCC2)o1
valueType: EC50
valueObserved: ≤ 100 nM

molecularString: Cc1cc(C(=O)Nc2ccc(-c3nnc(NCCCN4CCCCC4)o3)cc2)no1
valueType: EC50
valueObserved: ≤ 1000 nM

molecularString: CCN(CC)CCCNc1nnc(-c2ccc(NC(=O)C3CCCCC3)cc2OC)o1
valueType: EC50
valueObserved: ≤ 1000 nM

molecularString: COc1cc(NC(=O)c2ccccc2F)ccc1-c1nnc(NCCCN2CCN3CCC2CC3)o1
valueType: EC50
valueObserved: ≤ 100 nM

molecularString: COc1cc(NC(=O)C2CCCCC2)ccc1-c1nnc(NCCCN2CCCC2)o1
valueType: EC50
valueObserved: ≤ 1000 nM

molecularString: O=C(Nc1ccc(-c2nnc(NCCCCN3CCOCC3)o2)c(C(F)(F)F)c1)c1ccccc1
valueType: EC50
valueObserved: ≤ 100 nM

molecularString: COc1cc(NC(=O)c2ccccc2F)ccc1-c1nnc(NCCCCN2CCCC2)o1
valueType: EC50
valueObserved: ≤ 100 nM

molecularString: CCN(CC)CCCNc1nnc(-c2ccc(NC(=O)c3ccccc3)cc2C(F)(F)F)o1
valueType: EC50
valueObserved: ≤ 1000 nM

---

In this section, each of the molecules is paired with its reported EC50.
- measuredOn: human α7 nAChR (Homo sapiens)
- Construct: host or cells: GH4C1 cells (pituitary tumor, immortalized cell line)
- methodNotes: α7 nAChR FLIPR (Fluorometric Imaging Plate Reader) Ca2+ assay, agonist EC50
- Assay type: cell-based
- conditionSummary: GH4C1 cells stably transfected with human α7 nAChR; Fluo-4 Ca2+ fluorescence; Examples 194 to 205 tested as the HCl salt; read-out: pEC50 value (negative logarithm of the agonist EC50) (converted)
valueType: EC50

molecule: O=C(Nc1ccc(-c2nnc(NCCCN3CCN4CCC3CC4)o2)c(Cl)c1)c1ccccc1F [Example 125]
measuredOn: human α7 nAChR (Homo sapiens)
valueType: EC50
valueObserved: ≤ 100 nM
--
molecule: CCN(CC)CCCCNc1nnc(-c2ccc(NC(=O)C3CCCCC3)cc2)o1 [Example 150]
measuredOn: human α7 nAChR (Homo sapiens)
valueType: EC50
valueObserved: ≤ 1000 nM
--
molecule: CCN(CC)CCCCNc1nnc(-c2ccc(NC(=O)C3CCCCC3)cc2OC)o1 [Example 82]
measuredOn: human α7 nAChR (Homo sapiens)
valueType: EC50
valueObserved: ≤ 1000 nM
--
molecule: CN1CCCN(CCCNc2nnc(-c3ccc(NC(=O)c4ccccc4F)cc3)o2)CC1 [Example 174]
measuredOn: human α7 nAChR (Homo sapiens)
valueType: EC50
valueObserved: ≤ 1000 nM
--
molecule: O=C(Nc1ccc(-c2nnc(NCCCCN3CCCCC3)o2)c(Cl)c1)C1CCCCC1 [Example 164]
measuredOn: human α7 nAChR (Homo sapiens)
valueType: EC50
valueObserved: ≤ 100 nM
--
molecule: O=C(Nc1ccc(-c2nnc(NCCCN3CCCCC3)o2)c(Cl)c1)c1ccccc1 [Example 105]
measuredOn: human α7 nAChR (Homo sapiens)
valueType: EC50
valueObserved: ≤ 1000 nM
--
molecule: CCN(CC)CCCNc1nnc(-c2ccc(NC(=O)c3ccccc3)cc2F)o1 [Example 111]
measuredOn: human α7 nAChR (Homo sapiens)
valueType: EC50
valueObserved: ≤ 1000 nM
--
molecule: CCN(CC)CCCCNc1nnc(-c2ccc(NC(=O)C3CCCCC3)cc2Cl)o1 [Example 160]
measuredOn: human α7 nAChR (Homo sapiens)
valueType: EC50
valueObserved: ≤ 1000 nM

---

- measuredOn: human α7 nAChR (Homo sapiens, UniProt P36544)
- Construct: host or cells: GH4C1 cells (pituitary tumor, immortalized cell line)
- methodNotes: α7 nAChR FLIPR (Fluorometric Imaging Plate Reader) Ca2+ assay, agonist EC50
- Type: cell-based
- conditionSummary: GH4C1 cells stably transfected with human α7 nAChR; Fluo-4 Ca2+ fluorescence; Examples 194 to 205 tested as the HCl salt; read-out: pEC50 value (negative logarithm of the agonist EC50) (converted)
valueType: EC50

molecularString: CCN(CC)CCCNc1nnc(-c2ccc(NC(=O)c3ccccc3)cc2Cl)o1
valueType: EC50
valueObserved: ≤ 1000 nM
--
molecularString: COc1cc(NC(=O)C2CCCC2)ccc1-c1nnc(NCCCN2CCOCC2)o1
valueType: EC50
valueObserved: ≤ 1000 nM
--
molecularString: CCc1cc(NC(=O)c2ccccc2F)ccc1-c1nnc(NCCCN2CCN3CCC2CC3)o1
valueType: EC50
valueObserved: ≤ 100 nM
--
molecularString: CCN(CC)CCCNc1nnc(-c2ccc(NC(=O)c3ccccc3F)cc2F)o1
valueType: EC50
valueObserved: ≤ 1000 nM
--
molecularString: O=C(Nc1ccc(-c2nnc(NCCCN3CCCC3)o2)cc1)C1CCCCC1
valueType: EC50
valueObserved: ≤ 1000 nM
--
molecularString: O=C(Nc1ccc(-c2nnc(NCCCN3CCCC3)o2)c(Cl)c1)c1ccccc1
valueType: EC50
valueObserved: ≤ 1000 nM
--
molecularString: O=C(Nc1ccc(-c2nnc(NCCCCN3CCCCC3)o2)c(F)c1)C1CCCCC1
valueType: EC50
valueObserved: ≤ 100 nM
--
molecularString: O=C(Nc1ccc(-c2nnc(NCCCN3CCOCC3)o2)cc1)c1c(F)cccc1F
valueType: EC50
valueObserved: ≤ 1000 nM
--
molecularString: CCN(CC)CCCNc1nnc(-c2ccc(NC(=O)c3ccccc3F)cc2OC)o1
valueType: EC50
valueObserved: ≤ 1000 nM

---

In this section, each of the compounds is paired with its reported EC50.
- measuredOn: human α7 nAChR (Homo sapiens, UniProt P36544)
- Construct: host or cells: GH4C1 cells (pituitary tumor, immortalized cell line)
- methodNotes: α7 nAChR FLIPR (Fluorometric Imaging Plate Reader) Ca2+ assay, agonist EC50
- Assay type: cell-based
- conditionSummary: GH4C1 cells stably transfected with human α7 nAChR; Fluo-4 Ca2+ fluorescence; Examples 194 to 205 tested as the HCl salt; read-out: pEC50 value (negative logarithm of the agonist EC50) (converted)
valueType: EC50

compound: COc1cc(NC(=O)c2c(F)cccc2F)ccc1-c1nnc(NCCCN2CCOCC2)o1 [Example 226]
valueType: EC50
valueObserved: ≤ 1000 nM

compound: O=C(Nc1ccc(-c2nnc(NCCCN3CCCC3)o2)cc1)c1ccccc1 [Example 69]
valueType: EC50
valueObserved: ≤ 1000 nM

compound: O=C(Nc1ccc(-c2nnc(NCCCCN3CCCC3)o2)c(Cl)c1)C1CCCCC1 [Example 158]
valueType: EC50
valueObserved: ≤ 100 nM

compound: O=C(Nc1ccc(-c2nnc(NCCCCN3CCOCC3)o2)c(F)c1)C1CCCCC1 [Example 58]
valueType: EC50
valueObserved: ≤ 1000 nM

compound: O=C(Nc1ccc(-c2nnc(NCCCN3CCCCC3)o2)c(C(F)(F)F)c1)C1CCCCC1 [Example 61]
valueType: EC50
valueObserved: ≤ 1000 nM

compound: O=C(Nc1ccc(-c2nnc(NCCCN3CCCCC3)o2)c(C(F)(F)F)c1)c1ccccc1 [Example 97]
valueType: EC50
valueObserved: ≤ 1000 nM

compound: CCN(CC)CCCCNc1nnc(-c2ccc(NC(=O)c3ccccc3)cc2OC)o1 [Example 75]
valueType: EC50
valueObserved: ≤ 100 nM

compound: O=C(Nc1ccc(-c2nnc(NCCCCN3CCCCC3)o2)c(F)c1)c1ccccc1F [Example 46]
valueType: EC50
valueObserved: ≤ 100 nM

compound: O=C(Nc1ccc(-c2nnc(NCCCN3CCCCC3)o2)cc1)c1cccnc1 [Example 13]
valueType: EC50
valueObserved: ≤ 1000 nM

compound: O=C(Nc1ccc(-c2nnc(NCCCCN3CCOCC3)o2)c(Cl)c1)c1ccccc1F [Example 154]
valueType: EC50
valueObserved: ≤ 100 nM

compound: O=C(Nc1ccc(-c2nnc(NCCCCN3CCCC3)o2)c(C(F)(F)F)c1)c1ccccc1F [Example 85]
valueType: EC50
valueObserved: ≤ 100 nM

compound: O=C(Nc1ccc(-c2nnc(NCCCN3CCCCC3)o2)cc1)c1cccs1 [Example 8]
valueType: EC50
valueObserved: ≤ 1000 nM

compound: COc1cc(NC(=O)CC(C)C)ccc1-c1nnc(NCCCN2CCOCC2)o1 [Example 229]
valueType: EC50
valueObserved: ≤ 1000 nM

compound: O=C(Nc1ccc(-c2nnc(NCCCCN3CCOCC3)o2)c(Cl)c1)c1ccccc1 [Example 102]
valueType: EC50
valueObserved: ≤ 100 nM

compound: O=C(Nc1ccc(-c2nnc(NCCCN3CCN4CCC3CC4)o2)c(F)c1)c1ccccc1F [Example 121]
valueType: EC50
valueObserved: ≤ 100 nM

compound: O=C(Nc1ccc(-c2nnc(NCCCN3CCN4CCC3CC4)o2)cc1)c1ccccc1 [Example 123]
valueType: EC50
valueObserved: ≤ 100 nM

compound: COc1cc(NC(=O)c2ccccc2F)ccc1-c1nnc(NCCCCN2CCC(F)CC2)o1 [Example 145]
valueType: EC50
valueObserved: ≤ 100 nM

compound: O=C(Nc1ccc(-c2nnc(NCCCN3CCCCC3)o2)cc1)c1ccsc1 [Example 10]
valueType: EC50
valueObserved: ≤ 1000 nM

compound: CCc1cc(NC(=O)c2ccccc2F)ccc1-c1nnc(NCCCN2CCOCC2)o1 [Example 167]
valueType: EC50
valueObserved: ≤ 1000 nM

compound: CCOc1cc(NC(=O)c2ccccc2)ccc1-c1nnc(NCCCN2CCCCC2)o1 [Example 190]
valueType: EC50
valueObserved: ≤ 100 nM

compound: O=C(Nc1ccc(-c2nnc(NCCCCN3CCCC3)o2)c(F)c1)c1ccccc1 [Example 108]
valueType: EC50
valueObserved: ≤ 100 nM

compound: CCN(CC)CCCNc1nnc(-c2ccc(NC(=O)C3CCCCC3)cc2Cl)o1 [Example 159]
valueType: EC50
valueObserved: ≤ 1000 nM

compound: O=C(Nc1ccc(-c2nnc(NCCCN3CCCC3)o2)c(C(F)(F)F)c1)c1ccccc1F [Example 84]
valueType: EC50
valueObserved: ≤ 1000 nM

compound: O=C(Nc1ccc(-c2nnc(NCCCCN3CCCC3)o2)c(Cl)c1)c1ccccc1F [Example 153]
valueType: EC50
valueObserved: ≤ 100 nM

compound: O=C(Nc1ccc(-c2nnc(NCCCN3CCCC3)o2)c(C(F)(F)F)c1)c1ccccc1 [Example 91]
valueType: EC50
valueObserved: ≤ 1000 nM

compound: O=C(Nc1ccc(-c2nnc(NCCCN3CCCCC3)o2)cc1)c1cccc(F)c1F [Example 16]
valueType: EC50
valueObserved: ≤ 1000 nM

compound: CCN(CC)CCCCNc1nnc(-c2ccc(NC(=O)c3ccccc3)cc2F)o1 [Example 112]
valueType: EC50
valueObserved: ≤ 100 nM

compound: O=C(Nc1ccc(-c2nnc(NCCCN3CCCCC3)o2)c(F)c1)c1ccccc1 [Example 113]
valueType: EC50
valueObserved: ≤ 1000 nM

compound: CCN(CC)CCCCNc1nnc(-c2ccc(NC(=O)C3CCCCC3)cc2F)o1 [Example 60]
valueType: EC50
valueObserved: ≤ 1000 nM

compound: O=C(Nc1ccc(-c2nnc(NCCCCN3CCCC3)o2)cc1)C1CCCCC1 [Example 147]
valueType: EC50
valueObserved: ≤ 100 nM

compound: COc1cc(NC(=O)c2ccccc2F)ccc1-c1nnc(NCCCN2CCCC2)o1 [Example 126]
valueType: EC50
valueObserved: ≤ 1000 nM

compound: CCN(CC)CCCCNc1nnc(-c2ccc(NC(=O)c3ccccc3F)cc2F)o1 [Example 51]
valueType: EC50
valueObserved: ≤ 1000 nM

compound: CCc1cc(NC(=O)c2ccccc2F)ccc1-c1nnc(NCCCCN2CCOCC2)o1 [Example 172]
valueType: EC50
valueObserved: ≤ 100 nM

compound: O=C(Nc1ccc(-c2nnc(NCCCN3CCOCC3)o2)cc1)c1cccc(F)c1 [Example 195]
valueType: EC50
valueObserved: ≤ 1000 nM
